Target: renin (Homo sapiens, UniProt P00797)
Sequence (P00797 67-406, species assumed): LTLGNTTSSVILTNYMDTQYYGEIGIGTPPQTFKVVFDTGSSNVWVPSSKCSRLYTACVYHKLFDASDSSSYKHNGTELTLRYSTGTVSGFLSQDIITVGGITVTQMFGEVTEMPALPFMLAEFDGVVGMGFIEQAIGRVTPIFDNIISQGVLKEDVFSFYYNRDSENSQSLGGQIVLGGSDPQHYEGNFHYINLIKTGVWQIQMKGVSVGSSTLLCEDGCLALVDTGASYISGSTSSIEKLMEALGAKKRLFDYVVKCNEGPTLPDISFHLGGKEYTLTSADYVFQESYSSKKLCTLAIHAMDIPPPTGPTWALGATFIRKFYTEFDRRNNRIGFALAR
Assay: in vitro renin inhibitory activity, radioimmunoassay for angiotensin I
Format: biochemical
Details: 10^-6 molar test compound; renin incubated 2 hours at 37° with substrate angiotensinogen; angiotensin I by radioimmunoassay
attribute.measured: Activity % Inhibition @ 10^-6 M (%)
Lab book: enter the figure in %, no units written.

The value of Activity % Inhibition @ 10^-6 M measured for the molecule CCOC(=O)NC(NC(=O)C(Cc1cccc2ccccc12)Cc1cccc2ccccc12)C(=O)NC(CC(C)C)C(O)CC(=O)NCC(C)CC (stereo not drawn) turned out to be 40

The value of Activity % Inhibition @ 10^-6 M measured for the molecule CCC(C)CNC(=O)C[C@H](O)[C@H](CC(C)C)NC(=O)C(NC(=O)C(Cc1cccc2ccccc12)Cc1cccc2ccccc12)OC (stereo partly drawn) turned out to be 90

The value of Activity % Inhibition @ 10^-6 M measured for the molecule CCC(C)CNC(=O)CC(O)C(CC(C)C)NC(=O)C(NC(=O)C(Cc1cccc2ccccc12)Cc1cccc2ccccc12)Nc1ccccc1 (stereo not drawn) turned out to be 56

The value of Activity % Inhibition @ 10^-6 M measured for the molecule CCC(C)CNC(=O)CC(O)C(CC(C)C)NC(=O)C(NC(=O)C(Cc1cccc2ccccc12)Cc1cccc2ccccc12)SC (stereo not drawn) [DNMANHCH(SCH3)COSTANHCH2 CH(CH3)CH2 CH3] turned out to be 86

The value of Activity % Inhibition @ 10^-6 M measured for the molecule CCC(C)CNC(=O)CC(O)C(CC(C)C)NC(=O)C(NC(C)=O)NC(=O)C(Cc1cccc2ccccc12)Cc1cccc2ccccc12 (stereo not drawn) turned out to be 39

The value of Activity % Inhibition @ 10^-6 M measured for the molecule CCC(C)CNC(=O)CC(O)C(CC(C)C)NC(=O)C(N)NC(=O)C(Cc1cccc2ccccc12)Cc1cccc2ccccc12 (single isomer, unassigned) [DNMANHCH(NH2)COSTANHCH2 CH(CH3)CH2 CH3 (fast isomer)] turned out to be 9

The value of Activity % Inhibition @ 10^-6 M measured for the molecule CCC(C)CNC(=O)CC(O)C(CC(C)C)NC(=O)C(NC(=O)C(Cc1cccc2ccccc12)Cc1cccc2ccccc12)N(C)C (single isomer, unassigned) [DNMANHCH(N(CH3)2)COSTANHCH2 CH(CH3)CH2 CH3 (slow isomer)] turned out to be 55

The value of Activity % Inhibition @ 10^-6 M measured for the molecule CCC(C)CNC(=O)CC(O)C(CC(C)C)NC(=O)C(NC(=O)C(Cc1cccc2ccccc12)Cc1cccc2ccccc12)[S+](C)[O-] (stereo not drawn) [DNMANHCH(SOCH3)COSTANHCH2 CH(CH3)CH2 CH3] turned out to be 35

The value of Activity % Inhibition @ 10^-6 M measured for the molecule CCC(C)CNC(=O)CC(O)C(CC(C)C)NC(=O)C(NC(=O)C(Cc1cccc2ccccc12)Cc1cccc2ccccc12)SC(C)C (single isomer, unassigned) [DNMANHCH(SCH(CH3)2)COSTANHCH2 CH(CH3)CH2 CH3 (slow isomer)] turned out to be 26

The value of Activity % Inhibition @ 10^-6 M measured for the molecule CCC(C)CNC(=O)CC(O)C(CC(C)C)NC(=O)C(NC(=O)C(Cc1cccc2ccccc12)Cc1cccc2ccccc12)SC(C)C (single isomer, unassigned) [DNMANHCH(SCH(CH3)2)COSTANHCH2 CH(CH3)CH2 CH3 (fast isomer)] turned out to be 87

The value of Activity % Inhibition @ 10^-6 M measured for the molecule CCOC(NC(=O)C(Cc1cccc2ccccc12)Cc1cccc2ccccc12)C(=O)N[C@@H](CC(C)C)[C@@H](O)CC(=O)NCC(C)CC (single isomer, unassigned) [DNMANHCH(OC2 H5)COSTANHCH2 CH(CH3)CH2 CH3 (fast isomer)] turned out to be 100

The value of Activity % Inhibition @ 10^-6 M measured for the molecule CCC(C)CNC(=O)CC(O)C(CC(C)C)NC(=O)C(NC(=O)C(Cc1cccc2ccccc12)Cc1cccc2ccccc12)Sc1ccccc1 (stereo not drawn) [DNMANHCH(SPh)COSTANHCH2 CH(CH3)CH2 CH3] turned out to be 40
